Multi-source literature compilation: IC50 on BRD4 (Homo sapiens (Human)).

{"columns": ["Compound", "IC50"],
 "data": [
  ["COc1ccc2c(n1)c1ncc(-c3c(C)noc3C)cc1n2C(c1ccccc1)C1CCOCC1 (stereo not shown)", "< 2 nM"],
  ["Cc1nnn2c1-c1ccc(C(N)=O)cc1N(c1ccc(Cl)cc1)CC2", "< 100 nM"],
  ["Cc1nnn2c1-c1ccc(C(O)C(F)(F)F)cc1N(c1ccc(Cl)cc1)CC2 (stereo not shown)", "< 100 nM"],
  ["COc1ncccc1-c1c(C2CC2)c2c(n1C)C(c1ccc(Cl)cc1)N(c1cc(C)c3nnc(C)n3c1)C2=O (stereo not shown)", "< 11 nM"]
]}
